// data source = patent US20210032312A1

- assayed_system: T1, In house human CD8A-Fc (human, UniProt P01732 22-182, limits assumed)
- T1 construct: Captured on goat anti-human Fc on a ProteOn GLC chip; also called hCD8A-Fc; recombinant human CD8 alpha; not shown: linker with flag (and polyhistidine) tag and Fc of human IgG1
- T1 sequence (P01732 22-182 limits assumed): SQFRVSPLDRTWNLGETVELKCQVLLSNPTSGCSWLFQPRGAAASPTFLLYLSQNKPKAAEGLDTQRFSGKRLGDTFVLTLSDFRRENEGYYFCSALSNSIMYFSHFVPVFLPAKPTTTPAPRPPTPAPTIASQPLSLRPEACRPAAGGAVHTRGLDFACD
- test_name: SPR (ProteOn), captured hCD8A-Fc
measure_name: koff (s⁻¹)

P282ER9P1360_C1 (designed binder, FN3 domain) LPAPKNLVVSRVTEDSARLSWTTPDAAFDSFGILYYEPVDSGEAITLPVPGSERSYDLTGLKPGTEYWVVITGVKGGAPSTPLGAIFTT    0.000181

1: P282BR9P1357_D2 (designed binder, FN3 domain) LPAPKNLVVSRVTEDSARLSWIKDGHPRHFDSFLIQYQESEKVGEAIVLTVPGSERSYDLTGLKPGTEYTVSIYGVDVVYDRGQLISSNPLSAIFTT
2: P283AR9P1362_H11 (designed binder, FN3 domain) LPAPKNLVVSRVTEDSARLSWPKIQGQHFDSFLIQYQESEKVGEAIVLTVPGSERSYDLTGLKPGTEYTVSIYGVDVKYDIDSRPISSNPLSAIFTT
Ask: Field: entry with larger koff (options 1 / 2 ). Give the chosen item's label as your response.
Result: 1
(1: 0.00105 s⁻¹, 2: 0.00018 s⁻¹)
